measurement-type: melting point (°C)
Please state the figure in °C; there is no need to write the unit.

Known results for compounds:
1. Cl.O=C1Nc2ccc(CN3CCOC3=O)cc2C1=Cc1cc(CN2CCCCC2)c[nH]1 : 256
2. Cl.O=C1Nc2ccc(CN3CCOC3=O)cc2C1=Cc1ccc(CN2CCOCC2)[nH]1 : 195
3. Cl.O=C1Nc2ccc(CN3CCOC3=O)cc2C1=Cc1c[nH]cc1CN1CCOCC1 : 210
4. Cc1[nH]c(C=C2C(=O)Nc3ccc(CN4CCOC4=O)cc32)c(C)c1CN1C[C@H]2CCC[C@H]2C1.Cl : 204

Okay, next one:
// query Need melting point, item `CC(=C1C(=O)Nc2ccc(CN3C(=O)CSC3=O)cc21)c1cc(CN2CCOCC2)c[nH]1.Cl`
// result 225

====

Item-by-item account of melting point
Write the number in °C without appending the unit.

// query Name the reported melting point value associated with the compound `O=C1Nc2ccc(CN3CCOC3=O)cc2C1=Cc1[nH]ccc1CN1CCOCC1`
// result 192

// query Then `CC(=C1C(=O)Nc2ccc(CN3C(=O)COC3=O)cc21)c1cc(CN2CCOCC2)c[nH]1.Cl` ?
// result 220

// query Please answer likewise for `Cl.O=C1Nc2ccc(CN3CCSC3=O)cc2C1=Cc1cc(CN2CCOCC2)c[nH]1`
// result 244

// query What do you have for `CC1(C)OC(=O)N(Cc2ccc3c(c2)C(=Cc2cc(CN4CCOCC4)c[nH]2)C(=O)N3)C1=O.Cl` ?
// result 191

// query Would you kindly repeat that for `Cl.O=C1Nc2ccc(CN3C(=O)COC3=O)cc2C1=Cc1cc(CN2CCOCC2)c[nH]1` ?
// result 216

// query Another: `Cl.O=C1Nc2ccc(CN3C(=O)[C@H]4C[C@H]4C3=O)cc2C1=Cc1cc(CN2CCCCC2)c[nH]1`
// result 198

// query Check `Cl.O=C1Nc2ccc(CN3CCOC3=O)cc2C1=Cc1cc(CN2CCCC2)c[nH]1` too.
// result 204

// query Field entry: `Cl.O=C1Nc2ccc(CN3C(=O)CCC3=O)cc2C1=Cc1cc(CN2CCOCC2)c[nH]1`
// result 212

// query // next record `Cl.O=C1Nc2ccc(CN3CCOC3=O)cc2C1=Cc1cc(CN2C[C@H]3C[C@H]3C2)c[nH]1`
// result 179

// query Repeat with `CC(=C1C(=O)Nc2ccc(CN3CCOC3=O)cc21)c1cc(CN2CCOCC2)c[nH]1.Cl`
// result 212

// query Another compound: `CCN(CC)Cc1c[nH]c(C=C2C(=O)Nc3ccc(CN4CCOC4=O)cc32)c1.Cl`
// result 192
